# TARGET_ENTITY: T1, Nluc-IL23R fusion protein (human, UniProt Q5VWK5 22-629)
# T1 construct: range 22-629; Stably expressed in HEK293 cells; also called hIL-23R; human IL-23R; not shown: Nanoluc protein (N1371, Promega) at the N-terminus, after a secretion signal
# T1 sequence (looked up): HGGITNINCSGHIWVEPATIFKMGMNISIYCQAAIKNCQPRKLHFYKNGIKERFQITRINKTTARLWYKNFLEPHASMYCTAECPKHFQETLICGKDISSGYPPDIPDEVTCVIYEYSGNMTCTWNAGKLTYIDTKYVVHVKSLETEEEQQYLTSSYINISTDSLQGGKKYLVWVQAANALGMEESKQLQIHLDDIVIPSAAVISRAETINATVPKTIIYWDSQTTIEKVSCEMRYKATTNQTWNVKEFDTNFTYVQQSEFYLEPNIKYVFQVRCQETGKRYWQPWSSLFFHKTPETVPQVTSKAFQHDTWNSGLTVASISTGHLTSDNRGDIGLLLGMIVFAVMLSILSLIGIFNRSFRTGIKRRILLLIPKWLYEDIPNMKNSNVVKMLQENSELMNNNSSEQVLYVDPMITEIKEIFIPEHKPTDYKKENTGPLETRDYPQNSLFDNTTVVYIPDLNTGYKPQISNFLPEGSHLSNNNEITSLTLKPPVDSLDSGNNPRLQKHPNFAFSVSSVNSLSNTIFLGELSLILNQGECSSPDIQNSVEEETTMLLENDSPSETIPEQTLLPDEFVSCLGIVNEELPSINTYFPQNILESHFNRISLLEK
# EXPERIMENT: BRET competition vs TAMRA-labelled peptide, Nluc-IL23R membranes; further: test concentration or dose not given here
*1 amine or outer side, *2 acyl side, *3 side chain or, on linkers, in order; H or OH if unused. Bridges are numbered along the chain shown (N, C = ends). Primed or numbered codes have the meaning given here. Where no end group is shown, it is not given here. [ ]: non-standard residue; d: D form. 4‑Aminomethyl‑phenylacetyl = 4-aminomethyl-phenylacetyl unit, its amine closes the lactam, O=C(Cc1ccc(CN[*:1])cc1)[*:2]; 1,3‑dibromopropan‑2‑one″ = linker forming 1,3-dithio-propan-2-one bridge -SCH2C(=O)CH2S- between two Cys; 2Nal = N[C@@H](Cc1ccc2ccccc2c1)C(=O)O; AEF = NCCOc1ccc(C[C@H](N)C(=O)O)cc1; 3Pal = N[C@@H](Cc1cccnc1)C(=O)O; αMeL = CC(C)C[C@](C)(N)C(=O)O; CH2COCH2 = O=C(C[*:1])C[*:2]; dOrn = NCCC[C@@H](N)C(=O)O; NMeS = CN[C@@H](CO)C(=O)O; Orn = NCCC[C@H](N)C(=O)O; Dab = NCC[C@H](N)C(=O)O; βAla = NCCC(=O)O
PROPERTY: % displacement (%)
Reply numerically in %, unit not repeated.

For the binder [4‑Aminomethyl‑phenylacetyl][NMeS]CWQC[AEF][2Nal][αMeL]E[Dab]-NH2 (lactam N-10; linker 3-6 via CH2COCH2) [Ref 141] , give its reported % displacement.
102

New cases:
For the binder [4‑Aminomethyl‑phenylacetyl]SCWQC[AEF][2Nal][αMeL]E[dR]-NH2 (lactam N-10; linker 3-6 via 1,3‑dibromopropan‑2‑one″) [Ref 80] , give its reported % displacement.
98

For the binder [4‑Aminomethyl‑phenylacetyl]SCWQC[AEF][2Nal][αMeL]E[Dab]-NH2 (lactam N-10; linker 3-6 via 1,3‑dibromopropan‑2‑one″) [Ref 82] , give its reported % displacement.
103

For the binder [dK]TVWQD[AEF][2Nal][αMeL]E[Dab][3Pal]-NH2 (lactam 1-10, N-6; SMILES CC(C)C[C@]1(C)NC(=O)[C@H](Cc2ccc3ccccc3c2)NC(=O)[C@H](Cc2ccc(OCCN)cc2)NC(=O)[C@@H]2CC(=O)N[C@H](CCCCNC(=O)CC[C@@H](C(=O)N[C@@H](CCN)C(=O)N[C@@H](Cc3cccnc3)C(N)=O)NC1=O)C(=O)N[C@@H]([C@@H](C)O)C(=O)N[C@@H](C(C)C)C(=O)N[C@@H](Cc1c[nH]c3ccccc13)C(=O)N[C@@H](CCC(N)=O)C(=O)N2) [Compound 3] , give its reported % displacement.
105

For the binder [Orn][βAla]WQE[AEF][2Nal][αMeL]E[Dab][3Pal]-NHMe (lactam 1-9, 1-5; not fully specified; printed as [Orn](1c)(6c)^†[3-Aminopropanoyl]WQE(6c)[Y(2-aminoethoxy)][2-Nal][2-Me-Leu]E(1c)[Dab][3-(3-Pyridyl)-Ala]-[NHMe], (1c) [2,11] lactam, (6c) [2,7] lactam, ^† alpha-amine in bridge; also: alpha-amine of residue 1 in bridge, which of the two lactams not given here) [Compound 91] , give its reported % displacement.
100

For the binder [dOrn]TVWQD[AEF][2Nal][αMeL]E[Dab][3Pal]-NH2 (lactam 1-10, N-6; SMILES CC(C)C[C@]1(C)NC(=O)[C@H](Cc2ccc3ccccc3c2)NC(=O)[C@H](Cc2ccc(OCCN)cc2)NC(=O)[C@@H]2CC(=O)N[C@H](CCCNC(=O)CC[C@@H](C(=O)N[C@@H](CCN)C(=O)N[C@@H](Cc3cccnc3)C(N)=O)NC1=O)C(=O)N[C@@H]([C@@H](C)O)C(=O)N[C@@H](C(C)C)C(=O)N[C@@H](Cc1c[nH]c3ccccc13)C(=O)N[C@@H](CCC(N)=O)C(=O)N2) [Compound 10] , give its reported % displacement.
107

For the binder KWQE[AEF][2Nal][αMeL]E[Dab][3Pal]-NHMe (lactam 1-8, N-4; SMILES CNC(=O)[C@H](Cc1cccnc1)NC(=O)[C@H](CCN)NC(=O)[C@@H]1CCC(=O)NCCCC[C@@H]2NC(=O)CC[C@H](NC(=O)[C@H](CCC(N)=O)NC(=O)[C@H](Cc3c[nH]c4ccccc34)NC2=O)C(=O)N[C@@H](Cc2ccc(OCCN)cc2)C(=O)N[C@@H](Cc2ccc3ccccc3c2)C(=O)N[C@@](C)(CC(C)C)C(=O)N1) [Compound 43] , give its reported % displacement.
100

For the binder KIVWQE[AEF][2Nal][αMeL]EP[3Pal]-NHMe (lactam 1-10; lactam (positions not given here); not fully specified (bridges); printed as K(1c)(6c)^{†}IVWQE(6c)[Y(2-aminoethoxy)][2-Nal][2-Me-Leu]E(1c)P[3-(3-Pyridyl)-Ala]-[NHMe]) [Compound 63] , give its reported % displacement.
98

For the binder [iso‑Glu]WQE[AEF][2Nal][αMeL]K[Dab][3Pal]-NHMe (lactam 1-8, N-4; also: iso-Glu: alpha-carboxylic acid in bridge) [Compound 106] , give its reported % displacement.
99

For the binder [dK]TVWQE[AEF][2Nal][αMeL]E[Dab][3Pal]-NH2 (lactam 1-10; lactam (positions not given here); not fully specified (bridges); printed as [{d}K](1c)(6c)^{†}TVWQE(6c)[Y(2-aminoethoxy)][2-Nal][2-Me-Leu]E(1c)[Dab][3-(3-Pyridyl)-Ala]-[NH2]) [Compound 1] , give its reported % displacement.
103

Values compiled from patent EP4471048A1.
